Experiment: protein stability index of a GFP-peptide fusion (GPS, HEK-293T) (PSI 1-6); higher = more stable;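 note: 24-mer peptide tiles fused after GFP, lentivirally expressed, FACS-sorted into six equal bins by GFP/DsRed ratio, decoded by Illumina sequencing, PSI is the read-weighted mean bin number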
Details: treatment: DMSO; c terminus: a fixed tail appended
reported-endpoint: protein stability index
Hey, just send me the number, nothing else.

[ask] Identify the reported protein stability index for the following entry. GPLVPRLAGMANHGSPQLGEGMFQ [TBX5]
[reply] 3.67

[ask] Identify the reported protein stability index for the following entry. VCYFTNWAQYRQGEARFLPKDLDP [CHIT1]
[reply] 2.32

[ask] Identify the reported protein stability index for the following entry. DIHITARIESDLTLESLSDEEIHP [DRICH1]
[reply] 4.85

[ask] Identify the reported protein stability index for the following entry. RKTQKKVPDVKEMEKSSFTEYIES [TAF7L]
[reply] 4.43

[ask] Identify the reported protein stability index for the following entry. GAYSSASSFSRPLGYPYVNSVSSH [DLX1]
[reply] 3.1

[ask] Identify the reported protein stability index for the following entry. LVAEILPAPGKLLGPCVVGYGIYY [SAT2]
[reply] 2.66

[ask] Identify the reported protein stability index for the following entry. LDKMLDPQVWREAATQVFFALGLG [SLC6A17]
[reply] 2.52

[ask] Identify the reported protein stability index for the following entry. TALTSFCAKYTYPVCSALLDPVLQ [FANCE]
[reply] 2.31

[ask] Identify the reported protein stability index for the following entry. DDLMGILCKSVLEIERAIKQTQCP [FEM1C]
[reply] 2.07

[ask] Identify the reported protein stability index for the following entry. LTALLEKYTPSNKHGFSWAVPKFM [DLC1]
[reply] 2.6

[ask] Identify the reported protein stability index for the following entry. DFTLSKTNMARIREIMEKFGKQPV [CPXM2]
[reply] 2.71

[ask] Identify the reported protein stability index for the following entry. RQSVENDIHGLRKVIDDTNITRLQ [KRT18]
[reply] 4.17

[ask] Identify the reported protein stability index for the following entry. SRSENVLSRLSLMAMPNGFHEDGP [PSD2]
[reply] 3.73

[ask] Identify the reported protein stability index for the following entry. LLMTSGVVLCEGVKWLSFHSGYDF [CNOT7]
[reply] 3.33

----------
Assay: protein stability index of a GFP-peptide fusion (GPS, HEK-293T) (PSI 1-6); higher = more stable
Conditions: treatment: DMSO; c terminus: a fixed tail appended
Grouping rule (protein stability index): low band: < 3; middle band: ≥ 3 and < 4; high band: ≥ 4

Here are 2 sequences together with their reported answers.
residue-codes	assigned-category
LLDKLAKENQDIRLLQAQLQAQKE [PBXIP1]	high band
KRTIIPTLVEAIKEQDGREVDWEY [DFFB]	high band

[ask] Field: class (protein stability index) — entry: QLRKQKKKTGKSSTTALGDKQRKA [ELOA2]
[reply] high band

[ask] Field: class (protein stability index) — entry: CFPSTQKPTEPSVPVQPLLPESLA [FBF1]
[reply] high band

----------
Known protein stability index of a selection of sequences
Assay: protein stability index of a GFP-peptide fusion (GPS, HEK-293T) (PSI 1-6); higher = more stable
Conditions: treatment: MLN4924 1 uM, 8 h; c terminus: a fixed tail appended
Hey, just send me the number, nothing else.

See these solved cases before continuing.
residue-codes	protein stability index
AEALYQTKFQELQLAAGRHGDDLK [KRT71]	4.71
HNIVFGDYTWTEFDEPFLTRNVQS [TRIP13]	2.61
ALEQGGLRAATMSAVEAATCRAKE [PYCR3]	4.96
DLSMDGLFGTIAYLPPERIREKSR [RIPK4]	3.66
NSMPVDNRNHNEGMVTRCIIEVLS [CHGB]	2.59
SEDRRSRHCPYLDTINRSVLDFDF [USP39]	3.44
WEEEEDHEKERPEHKSLESLADGG [FANCE]	5.53
LKPLLSPSSETTVTVELPEADRAG [LYSMD4]	5.07

Moving on to another sequence below.
[ask] Identify the reported protein stability index for the following entry. PQFTGILQLLQSRTSRKFLACRLT [INTS3]
[reply] 2.16
